target: GAL4 DBD (1-147)-CfEcR(DEF)/VP16AD-βRXREF-LmUSPEF (Choristoneura fumiferana, UniProt O77240); assay: cell-based; details: maximum fold induction at any concentration relative to that of GS-E ligand; CHO 27-63 cells
27-63 assay Rel Max FI below 0.8 gives -1; 27-63 assay Rel Max FI at or above it gives 1.

- CC(=O)c1cccc(C(=O)NN(C(=O)c2cc(C)cc(C)c2)C(C)(C)C)c1C [RG-100814]: 1
- CCc1ccc(C(=O)NN(C(=O)c2cccnc2OC)C(CC)C(C)(C)C)cc1 (stereo not shown) [RG-115837]: -1
- CC(C)(C)N(NC(=O)c1ccc(Cl)cc1)C(=O)c1ccccc1 [RG-100864]: -1
- COc1cc(C)ccc1C(=O)N(NC(=O)c1cccc(OC)c1C)C(C)(C)C [RG-100769]: -1
- COc1cc(C(=O)N(NC(=O)c2ccc3c(c2C)OCCO3)C(C)(C)C)cc(OC)c1C [RG-115637]: 1
- CCc1c(C(=O)NN(C(=O)c2cc(Cl)nc(Cl)c2)C(C)(C)C)ccc2c1OCCO2 [RG-115297]: 1
- CCCC(N(NC(=O)c1cccc(OC)c1C)C(=O)c1cc(OC)c(C)c(OC)c1)C(C)(C)C (stereo not shown) [RG-115824]: 1
- Cc1c(C(=O)NN(C(=O)c2cc(F)c(F)cc2F)C(C)(C)C)ccc2c1CCCO2 [RG-115229]: -1
- COc1cccc(C(=O)NN(C(=O)c2cccnc2Cl)C(C)(C)C)c1C [RG-100127]: -1
- CCCCC(N(NC(=O)c1ccc(CC)cc1)C(=O)c1cc(C)cc(C)c1)C(C)(C)C (stereo not shown) [RG-115840]: -1
- CCc1c(OC)cccc1C(=O)NN(C(=O)c1cc(OC)c(C)c(OC)c1)C(CC)C(C)(C)C (stereo not shown) [RG-115831]: 1
- CCCC(N(NC(=O)c1cccc(OC)c1CC)C(=O)c1cc(OC)c(C)c(OC)c1)C(C)(C)C (stereo not shown) [RG-115829]: 1
- Cc1c(C(=O)NN(C(=O)c2cc(F)cc(F)c2)C(C)(C)C)ccc2c1CCCO2 [RG-115207]: -1
- CCc1c(OC)cccc1C(=O)NN(C(=O)c1cc(F)c(Cl)cc1Cl)C(C)(C)C [RG-115302]: -1
- COc1cccc(C(=O)NN(C(=O)c2ccc(C(F)(F)F)nc2OC)C(C)(C)C)c1C [RG-115834]: -1
- COc1cc(C(=O)N(NC(=O)c2cccc(OC)c2C)C(C)(C)C)ccc1C [RG-100768]: 1
- COc1ccc(C)cc1C(=O)N(NC(=O)c1cccc(OC)c1C)C(C)(C)C [RG-100766]: 1
- CCc1c(C(=O)NN(C(=O)c2ccc(F)c(F)c2F)C(C)(C)C)ccc2c1OCCO2 [RG-115580]: -1
- COc1cc(Cl)ccc1C(=O)N(NC(=O)c1cccc(OC)c1C)C(C)(C)C [RG-100848]: -1
- Cc1c(C(=O)NN(C(=O)c2ccc(F)cc2)C(C)(C)C)ccc2c1CCCO2 [RG-115118]: -1
- CCCC(N(NC(=O)c1ccc2c(c1C)OCCO2)C(=O)c1cc(C)cc(C)c1)C(C)(C)C (stereo not shown) [RG-115864]: 1
- CCC(N(NC(=O)c1ccc2c(c1C)OCCO2)C(=O)c1cc(C)cc(C)c1)C(C)(C)C (stereo not shown) [RG-115856]: 1
- CCC(N(NC(=O)c1cccc(OC)c1C)C(=O)c1cc(C)cc(C)c1)C(C)(C)C (stereo not shown) [RG-115819]: 1
- Cc1cc(C)cc(C(=O)N(NC(=O)c2ccc(CC#N)cc2)C(C)(C)C)c1 [RG-100875]: 1
- COc1cccc(C(=O)NN(C(=O)c2cc(Cl)nnc2Cl)C(C)(C)C)c1C [RG-115861]: -1
- Cc1c(C(=O)NN(C(=O)c2cc(F)c(Cl)cc2Cl)C(C)(C)C)ccc2c1CCCO2 [RG-115539]: -1
- CCC(N(NC(=O)c1ccc2c(c1C)OCCO2)C(=O)c1cc(OC)c(C)c(OC)c1)C(C)(C)C (stereo not shown) [RG-115857]: 1
- Cc1cc(C)cc(C(=O)N(NC(=O)c2ccc3c(c2)COCO3)C(C)(C)C)c1 [RG-101016]: -1
- CCCC(N(NC(=O)c1ccc2c(c1CC)OCCO2)C(=O)c1cc(C)cc(C)c1)C(C)(C)C (stereo not shown) [RG-115866]: 1
- CC(O)c1ccc(C(=O)NN(C(=O)c2cc(F)cc(F)c2)C(C)(C)C)cc1 (stereo not shown) [RG-100342]: -1
- COc1cccc(C(=O)NN(C(=O)c2cccc(C)c2)C(C)(C)C)c1C [RG-100694]: -1
